Entry source: patent US20170081338A1

Molecular target: Aurora-B (h) (Homo sapiens)
Sequence (Q96GD4 whole entry): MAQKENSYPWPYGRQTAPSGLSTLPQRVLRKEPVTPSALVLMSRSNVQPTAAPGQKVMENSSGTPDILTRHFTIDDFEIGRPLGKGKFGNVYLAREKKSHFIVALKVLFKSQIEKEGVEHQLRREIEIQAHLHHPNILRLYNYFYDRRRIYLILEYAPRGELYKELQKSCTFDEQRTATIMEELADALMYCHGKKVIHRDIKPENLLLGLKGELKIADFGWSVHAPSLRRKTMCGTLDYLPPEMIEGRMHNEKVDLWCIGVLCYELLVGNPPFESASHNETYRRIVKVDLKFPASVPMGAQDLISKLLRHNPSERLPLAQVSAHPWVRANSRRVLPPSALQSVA
measured_quantity: IC50 (nM)

- molecule: "Cn1cc(Nc2ncc(Cl)c(N[C@@H]3COC4C3OC[C@@H]4NS(=O)(=O)CC(C)(C)C)n2)cn1 (stereo partly drawn)"
  observed: 8
- molecule: "Cn1cc(Nc2ncc(Cl)c(N[C@@H]3COC4C3OC[C@@H]4NS(=O)(=O)CC(C)(C)C#N)n2)cn1 (stereo partly drawn)"
  observed: 11
- molecule: "Cn1cc(Nc2ncc(Cl)c(N[C@@H]3COC4C3OC[C@@H]4NS(=O)(=O)CC(F)(F)F)n2)cn1 (stereo partly drawn)"
  observed: 8

* * *

Experiment: Pharmacokinetics after intravenous and oral administration in rats
Assay type: in vivo
Conditions: iv dosing, dose 1 mg/kg
measured_quantity: Clearance (CL) after iv dosing (mL/min/kg)

// solved cases for Clearance (CL) after iv dosing follow
- compound: "CC(C)CS(=O)(=O)N[C@@H]1COC2C1OC[C@@H]2Nc1nc(Nc2cnn(C)c2)ncc1Cl (stereo partly shown)"
  measured_quantity: "Clearance (CL) after iv dosing"
  observed: 57
- compound: "CC(CS(=O)(=O)N[C@H]1COC2C1OC[C@H]2Nc1nc(Nc2cnn(C)c2)ncc1Cl)C(F)F (stereo partly shown)"
  measured_quantity: "Clearance (CL) after iv dosing"
  observed: 32.5

A. Cn1cc(Nc2ncc(Cl)c(N[C@@H]3COC4C3OC[C@@H]4NS(=O)(=O)CC3CC(F)C3)n2)cn1 (stereo partly shown)
B. Cn1cc(Nc2ncc(Cl)c(N[C@@H]3COC4C3OC[C@@H]4NS(=O)(=O)C3CCOC3)n2)cn1 (stereo partly shown)
-- ask Which value of Clearance (CL) after iv dosing is greater, the one for A or the one for B ? State the label of the item chosen.
-- reply B

* * *

Assay: Pharmacokinetics after intravenous and oral administration in rats
Format: in vivo
Settings: oral bioavailability
measured_quantity: F (%)

// solved cases for F follow
- molecule: "Cn1cc(Nc2ncc(Cl)c(N[C@@H]3COC4C3OC[C@@H]4NS(=O)(=O)CC3CCC3)n2)cn1 (stereo partly shown)"
  u: "%"
  F: 88.1
- molecule: "Cn1cc(Nc2ncc(Cl)c(N[C@@H]3COC4C3OC[C@@H]4NS(=O)(=O)CC(C)(F)F)n2)cn1 (stereo partly shown)"
  u: "%"
  F: 106.6

a. Cn1cc(Nc2ncc(Cl)c(N[C@@H]3COC4C3OC[C@@H]4NS(=O)(=O)C3CCOC3)n2)cn1 (stereo partly shown)
b. Cn1cc(Nc2ncc(Cl)c(N[C@@H]3COC4C3OC[C@@H]4NS(=O)(=O)CC3CC3)n2)cn1 (stereo partly shown)
-- ask Which value of F is greater, the one for a or the one for b ? State the label of the item chosen.
-- reply b

* * *

Experiment: Pharmacokinetics after intravenous and oral administration in rats
Format: in vivo
Conditions: oral bioavailability
measured_quantity: F (%)

// solved cases for F follow
- molecule: "CC(CS(=O)(=O)N[C@H]1COC2C1OC[C@H]2Nc1nc(Nc2cnn(C)c2)ncc1Cl)C(F)F (stereo partly shown)"
  F [%]: 33.1
- molecule: "Cn1cc(Nc2ncc(Cl)c(N[C@@H]3COC4C3OC[C@@H]4NS(=O)(=O)CC(C)(C)C#N)n2)cn1 (stereo partly shown)"
  F [%]: 62.7

A. Cn1cc(Nc2ncc(Cl)c(N[C@@H]3COC4C3OC[C@@H]4N3CCCS3(=O)=O)n2)cn1 (stereo partly shown)
B. Cn1cc(Nc2ncc(Cl)c(N[C@H]3COC4C3OC[C@H]4NS(=O)(=O)N3CCCC3)n2)cn1 (stereo partly shown)
-- ask Which value of F is greater, the one for A or the one for B ? State the label of the item chosen.
-- reply A

* * *

Test: Pharmacokinetics after intravenous and oral administration in rats
Type: in vivo
Details: rat, plasma, iv dosing, dose 1 mg/kg
measured_quantity: half-life (min)

// solved cases for half-life follow
- compound: "CC(C)CS(=O)(=O)N[C@H]1COC2C1OC[C@H]2Nc1nc(Nc2cnn(C)c2)ncc1Cl (stereo partly shown) [Ex. 2]"
  half-life, min: 69
- compound: "CC(C)=CS(=O)(=O)N[C@H]1COC2C1OC[C@H]2Nc1nc(Nc2cnn(C)c2)ncc1Cl (stereo partly shown) [Ex. 43]"
  half-life, min: 47.4

P. Cn1cc(Nc2ncc(Cl)c(N[C@@H]3COC4C3OC[C@@H]4NS(=O)(=O)Cc3ccccc3)n2)cn1 (stereo partly shown) [Ex. 19]
Q. Cn1cc(Nc2ncc(Cl)c(N[C@H]3COC4C3OC[C@H]4NS(=O)(=O)N3CCCC3)n2)cn1 (stereo partly shown) [Ex. 6]
-- ask Which value of half-life is greater, the one for P or the one for Q ? State the label of the item chosen.
-- reply P
(P: 52.8 min, Q: 34.8 min)

* * *

Experiment: Compound stability in rat liver microsomes
Format: in vitro ADME
Conditions: pH 7.4; rat liver microsomes; in vivo CLint extrapolated
measured_quantity: CLint scaled at 5 μM (mL/min/kg)

// solved cases for CLint scaled at 5 μM follow
- molecule: "Cn1cc(Nc2ncc(Cl)c(N[C@@H]3COC4C3OC[C@@H]4NS(=O)(=O)CC(C)(C)O)n2)cn1 (stereo partly drawn)"
  observed: 31.5
- molecule: "Cn1cc(Nc2ncc(Cl)c(N[C@@H]3COC4C3OC[C@@H]4NS(=O)(=O)C3CC3)n2)cn1 (stereo partly drawn)"
  observed: 24
- molecule: "Cn1cc(Nc2ncc(Cl)c(N[C@@H]3COC4C3OC[C@@H]4NS(=O)(=O)c3ccc(F)cc3)n2)cn1 (stereo partly drawn)"
  observed: 36.5
- molecule: "Cn1cc(Nc2ncc(Cl)c(N[C@@H]3COC4C3OC[C@@H]4Nc3ccc(C#N)cn3)n2)cn1 (stereo partly drawn)"
  observed: 93.4

1. Cn1cc(Nc2ncc(Cl)c(N[C@@H]3COC4C3OC[C@@H]4NS(=O)(=O)N3CCOCC3)n2)cn1 (stereo partly drawn)
2. Cn1cc(Nc2ncc(Cl)c(N[C@@H]3COC4C3OC[C@@H]4NS(=O)(=O)C(C)(C)C)n2)cn1 (stereo partly drawn)
-- ask Which value of CLint scaled at 5 μM is greater, the one for 1 or the one for 2 ? State the label of the item chosen.
-- reply 2

* * *

Test: Compound stability in rat liver microsomes
Assay type: in vitro ADME
Details: pH 7.4; rat liver microsomes 0.5 mg protein/mL, compound 5 μM, NADPH, 37° C.; read-out: Rat T1/2
measured_quantity: half-life at 5 μM (h)

// solved cases for half-life at 5 μM follow
- molecule: "Cn1cc(Nc2ncc(Cl)c(N[C@@H]3COC4C3OC[C@@H]4NS(=O)(=O)CC3CC3)n2)cn1 (stereo partly shown)"
  measured_quantity: "half-life at 5 μM"
  u: "h"
  observed: 1.16
- molecule: "Cn1cc(Nc2ncc(Cl)c(N[C@@H]3COC4C3OC[C@@H]4NS(=O)(=O)CC3CCOC3)n2)cn1 (stereo partly shown)"
  measured_quantity: "half-life at 5 μM"
  u: "h"
  observed: 1.77
- molecule: "Cn1cc(Nc2ncc(Cl)c(N[C@@H]3COC4C3OC[C@@H]4NS(=O)(=O)C3CC3)n2)cn1 (stereo partly shown)"
  measured_quantity: "half-life at 5 μM"
  u: "h"
  observed: 1.72
- molecule: "CC(C)CS(=O)(=O)N[C@H]1COC2C1OC[C@H]2Nc1nc(Nc2cnn(C)c2)ncc1Cl (stereo partly shown)"
  measured_quantity: "half-life at 5 μM"
  u: "h"
  observed: 1.12
- molecule: "Cn1cc(Nc2ncc(Cl)c(N[C@@H]3COC4C3OC[C@@H]4NS(=O)(=O)C3CCOC3)n2)cn1 (stereo partly shown)"
  measured_quantity: "half-life at 5 μM"
  u: "h"
  observed: 1.93

1. Cn1cc(Nc2ncc(Cl)c(N[C@@H]3COC4C3OC[C@@H]4N3CCCC3=O)n2)cn1 (stereo partly shown)
2. Cn1cc(Nc2ncc(Cl)c(N[C@@H]3COC4C3OC[C@@H]4NS(=O)(=O)C3CCCC3)n2)cn1 (stereo partly shown)
-- ask Hey, which is lower on measured half-life at 5 μM, 1 or 2 ? State the label of the item chosen.
-- reply 2

A. Cn1cc(Nc2ncc(Cl)c(N[C@@H]3COC4C3OC[C@@H]4N3CCCS3(=O)=O)n2)cn1 (stereo partly shown)
B. CC(O)CS(=O)(=O)N[C@H]1COC2C1OC[C@H]2Nc1nc(Nc2cnn(C)c2)ncc1Cl (stereo partly shown)
-- ask Which value of half-life at 5 μM is greater, the one for A or the one for B ? State the label of the item chosen.
-- reply B

1. Cn1cc(Nc2ncc(Cl)c(N[C@@H]3COC4C3OC[C@@H]4NS(=O)(=O)CC(C)(F)F)n2)cn1 (stereo partly shown)
2. CC(C)=CS(=O)(=O)N[C@H]1COC2C1OC[C@H]2Nc1nc(Nc2cnn(C)c2)ncc1Cl (stereo partly shown)
-- ask Which value of half-life at 5 μM is greater, the one for 1 or the one for 2 ? State the label of the item chosen.
-- reply 1
